Target: RSV fusion glycoprotein (RSV-F) (respiratory syncytial virus)
Experiment: SPR; F protein loaded on streptavidin sensors, mAb in solution
pKd: −log10 of the molar value.

>  <binder>
MPK142-v1 (antibody, V domains shown, VH and VL only) VH: EVQLVESGGGLVEPGGSLRLSCAASGFTISGYGMSWVRQAPGKGLEWVSSISASSSYIYYGDAMKGRITISRDNGWNSMYLQMNSLRTEDTAVYYCATAPIEPPYFDLWGRGTLVTVSS VL: QSVLTQPPSVSGAPGQRVTISCTGSSSNIGAGYDVHWYQQFPGKAPKVLIYGNNNRPSGVPDRFAASNSGASASLAITGLQAEDEAAYFCQSYDRRLSGPVFGGGTKLTVL

>  <pKd>
7.00

$$$$
>  <binder>
MPK204 (antibody, V domains shown, VH and VL only) VH: QVQLVESGGGLVKPGGSLRLSCEASGLSLSGYYMIWIRQAPGKGLEWISSISSSSNYIDYADSVKGRFTISRHNGQNTLYLQMNSLRVEDTAVYYCATEQTPSPGPFDLWGQGTLVTVSS VL: QSVLTQPPSVSGAPGQRVTISCTGTSSNIGTGYDVHWYQQFPGTSPKLLIYRNTNRPSGVPDRFSGSKSGSSASLAIAGLQAEDEADYYCQSYDRSVSGWVFGGGTKLTVL

>  <pKd>
9.54

$$$$
>  <binder>
MPK174-v2 (antibody, V domains shown, VH and VL only) VH: EVQLVESGGGLVKPGGSLRLSCAASRFKFGDYYMSWIRQAPGKGLEWVSNISPSSSYTNYADSVKGRFTISRDNAKNLLYLQMNSLRAEDTAVYYCARESCSGGSCSLHGMDVWGQGTTVTVAS VL: QSVLTQPPSVSGAPGQRVTISCTGSSSNIGAGYDVHWYQQLPGTAPKLLIYDNSNRPSGVPDRFSGSKSGTSASLAITGLRAEDDADYYCQSYDRSLGGSIFGGGTKLTVL

>  <pKd>
12.00

$$$$
>  <binder>
MPK157 (antibody, V domains shown, VH and VL only) VH: EVQLVESGGGLVKPGGSLRLSCSASGFTLSGYNMNWVRQAPGKGLEWISYISASSSYINYADSVKGRFTISRDNGRSSLYLQMNSLRAEDTAVYFCTTQAELPGWFDPWGQGTLVTVSS VL: QSVLTQPPSMSGAPGQRVTISCTGSSSNIGAGYDVNWYRQLPGTAPQLLIYRNTNRPSGVPDRFSGSNSGTSASLAITGLQADDEAHYYCQSYDRSLSGWVFGGGTKLTVL

>  <pKd>
12.00

$$$$
